These entries and their values trace back to ChEMBL document CHEMBL2163249.

# TESTED TARGET: Acetylcholinesterase (Electrophorus electricus)
# TEST: Competitive inhibition of electric eel AChE using acetyl thiocholine iodide as substrate by Lineweaver-Burk double-reciprocal analysis
MEASURED QUANTITY: pKi
Lab note — pKi values are minus log10 of concentrations in M.

INPUT: # lookup: pKi of COc1ccc2c(c[n+](C)c3c4cc5c(cc4ccc23)OCO5)c1OC [CHELERYTHRINE CHLORIDE]
OUTPUT: 6.32

====

# inhibition listing for each entry below
# TESTED TARGET: Cholinesterase (Equus caballus) (UniProt P81908)
# Sequence (P81908 whole entry): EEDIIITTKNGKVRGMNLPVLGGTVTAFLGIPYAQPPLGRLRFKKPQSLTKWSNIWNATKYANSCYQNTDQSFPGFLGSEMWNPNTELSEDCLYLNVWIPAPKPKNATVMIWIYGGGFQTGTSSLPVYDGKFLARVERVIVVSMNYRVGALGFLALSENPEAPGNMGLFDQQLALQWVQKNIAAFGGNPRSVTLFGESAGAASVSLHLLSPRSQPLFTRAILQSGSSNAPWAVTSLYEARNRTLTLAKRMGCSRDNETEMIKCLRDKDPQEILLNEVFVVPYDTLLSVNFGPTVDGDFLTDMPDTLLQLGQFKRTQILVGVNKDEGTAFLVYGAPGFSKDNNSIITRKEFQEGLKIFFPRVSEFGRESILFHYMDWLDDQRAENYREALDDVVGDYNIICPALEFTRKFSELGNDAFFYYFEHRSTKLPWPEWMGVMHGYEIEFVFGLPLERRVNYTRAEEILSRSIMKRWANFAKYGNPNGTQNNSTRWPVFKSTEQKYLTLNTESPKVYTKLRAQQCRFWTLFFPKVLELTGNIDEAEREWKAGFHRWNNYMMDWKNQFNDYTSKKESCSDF
# APPLIED CONDITIONS: at 2 mg/mL
# Description: Inhibition of horse BChE at 2 mg/ml by Ellman's method
Number in %, nothing else.

Here's what some known entries look like.
{"columns": ["SMILES DATA", "TESTED TARGET", "inhibition, %"],
 "data": [
  ["COc1cc([C@@H]2c3cc4c(cc3[C@@H](O[C@@H]3O[C@@H]5CO[C@@H](C)O[C@H]5[C@H](O)[C@H]3O)[C@H]3COC(=O)[C@H]23)OCO4)cc(OC)c1O", "Cholinesterase (Equus caballus) (UniProt P81908)", -5.72],
  ["O=c1cc(-c2ccccc2)oc2cc(O)c(O)c(O)c12", "Cholinesterase (Equus caballus) (UniProt P81908)", 15],
  ["Cc1c(C(=O)O)c(O)cc2c1C(=O)c1c(O)c([C@@H]3O[C@H](CO)[C@@H](O)[C@H](O)[C@H]3O)c(O)c(O)c1C2=O", "Cholinesterase (Equus caballus) (UniProt P81908)", -1.98]
]}

Consider the record given below.
INPUT: Record request: inhibition value, item COC1=CC(=O)O[C@@H](CCc2ccc3c(c2)OCO3)C1
OUTPUT: 3.66

====

Examples of molecules with documented inhibition follow.
# TESTED TARGET: Acetylcholinesterase (Electrophorus electricus)
# APPLIED CONDITIONS: at 2 mg/mL
# Description: Inhibition of electric eel AChE at 2 mg/ml by Ellman's method
Supply the numeric figure in %, leaving out any unit text.

Worked set:
{"columns": ["MOLECULE", "MEASUREMENT"],
 "data": [
  ["O=c1cc(-c2ccc(O)cc2)oc2cc(O)c([C@@H]3O[C@H](CO)[C@@H](O)[C@H](O)[C@H]3O)c(O)c12", 20.7],
  ["CC1=NCCc2c1[nH]c1cc(O)ccc21", 41.8],
  ["CC(C)[C@@]1(NC(=O)[C@@H]2C[C@@H]3c4cccc5[nH]cc(c45)C[C@H]3N(C)C2)O[C@@]2(O)[C@@H]3CCCN3C(=O)[C@H](Cc3ccccc3)N2C1=O", -1.54],
  ["COc1ccc(/C=C/c2cc(OC)cc(=O)o2)cc1", 7.69],
  ["O=c1cc(-c2ccc(O)c(O)c2)oc2cc(O)c([C@@H]3O[C@H](CO)[C@@H](O)[C@H](O)[C@H]3O)c(O)c12", 23.9],
  ["COc1cc2oc(=O)ccc2cc1O", 28.1]
]}

INPUT: Report inhibition for COc1cc(C2Oc3cc([C@H]4Oc5cc(O)cc(O)c5C(=O)[C@@H]4O)ccc3OC2CO)ccc1O (stereo partly drawn) please.
OUTPUT: 7.08

INPUT: Form field: reported inhibition of O=C(/C=C/c1ccc(O)c(O)c1)c1ccc(O[C@@H]2O[C@H](CO)[C@@H](O)[C@H](O)[C@H]2O)c(O)c1O
OUTPUT: 22.2

====

# TESTED TARGET: Acetylcholinesterase (Electrophorus electricus, UniProt O42275)
# Sequence (O42275 whole entry): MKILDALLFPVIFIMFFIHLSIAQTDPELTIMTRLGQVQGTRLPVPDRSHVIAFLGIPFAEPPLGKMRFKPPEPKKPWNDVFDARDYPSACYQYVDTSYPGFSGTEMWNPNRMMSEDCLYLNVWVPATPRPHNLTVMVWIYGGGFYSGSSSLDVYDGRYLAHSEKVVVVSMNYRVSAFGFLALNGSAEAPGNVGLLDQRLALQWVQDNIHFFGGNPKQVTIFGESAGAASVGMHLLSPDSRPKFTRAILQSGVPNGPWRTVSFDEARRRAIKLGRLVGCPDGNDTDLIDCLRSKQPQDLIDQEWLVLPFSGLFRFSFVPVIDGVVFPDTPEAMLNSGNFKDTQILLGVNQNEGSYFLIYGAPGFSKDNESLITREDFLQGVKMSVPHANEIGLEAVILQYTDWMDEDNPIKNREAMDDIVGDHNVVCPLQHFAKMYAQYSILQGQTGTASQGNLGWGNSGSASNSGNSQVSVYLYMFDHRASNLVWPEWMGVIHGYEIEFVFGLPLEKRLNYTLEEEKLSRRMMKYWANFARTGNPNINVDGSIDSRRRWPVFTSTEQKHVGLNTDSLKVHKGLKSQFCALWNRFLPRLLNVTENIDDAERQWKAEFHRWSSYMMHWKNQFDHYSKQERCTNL
# TEST: Inhibition of electric eel AChE by Ellman's method
# APPLIED CONDITIONS: read-out: IC50
Where a name gives a salt, the structure may show the parent alone.
Recorded measurements of pIC50, one per entry
In textbook form, pIC50 equals minus log to base ten of the concentration in mol/L.

{"columns": ["COMPOUND", "pIC50"],
 "data": [
  ["COc1ccc2c(c[n+](C)c3c4cc5c(cc4ccc23)OCO5)c1OC [CHELERYTHRINE CHLORIDE]", 5.42],
  ["COc1ccc2cc3[n+](cc2c1OC)CCc1cc2c(cc1-3)OCO2 [BERBERINE CHLORIDE]", 5.56],
  ["c1ccc2c(c1)CN1CCCC1=N2 [DESOXYPEGANINE HYDROCHLORIDE HYDRATE]", 4.93]
]}

Now, please, on to the next compound.
INPUT: Can you look up the measured pIC50 of C[C@@H]1OC(=O)[C@H]2C[C@H]3CCCC[C@@H]3[C@@H](/C=C/[C@H]3CCC[C@H](C)N3C)[C@@H]12 for me?
OUTPUT: 4.64

====

# TESTED TARGET: Acetylcholinesterase (Electrophorus electricus) (UniProt O42275)
# Sequence (O42275 24-633 limits assumed): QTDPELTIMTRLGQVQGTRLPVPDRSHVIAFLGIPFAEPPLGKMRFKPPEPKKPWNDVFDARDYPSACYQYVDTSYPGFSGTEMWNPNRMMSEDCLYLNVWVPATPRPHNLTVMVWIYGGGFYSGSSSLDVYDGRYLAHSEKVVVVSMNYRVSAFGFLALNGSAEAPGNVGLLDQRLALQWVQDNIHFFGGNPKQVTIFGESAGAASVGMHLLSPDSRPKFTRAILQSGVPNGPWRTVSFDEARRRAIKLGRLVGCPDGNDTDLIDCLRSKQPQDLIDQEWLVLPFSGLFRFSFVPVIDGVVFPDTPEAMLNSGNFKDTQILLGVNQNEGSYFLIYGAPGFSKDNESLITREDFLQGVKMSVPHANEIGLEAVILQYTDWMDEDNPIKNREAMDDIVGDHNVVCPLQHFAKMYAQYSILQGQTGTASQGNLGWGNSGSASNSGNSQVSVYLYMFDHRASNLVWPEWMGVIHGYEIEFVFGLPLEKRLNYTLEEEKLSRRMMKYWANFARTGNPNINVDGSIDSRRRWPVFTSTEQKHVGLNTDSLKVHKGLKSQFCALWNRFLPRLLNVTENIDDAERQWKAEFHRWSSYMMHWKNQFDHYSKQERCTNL
# APPLIED CONDITIONS: at 2 mg/mL
Recorded inhibition for the following compounds
Give the number; % is assumed, so skip it.

INPUT: # lookup: inhibition of CC(=O)OC[C@@]1(O)C[C@@]23CC[C@@H]4c5ccoc5C=C[C@@]4(C)[C@@H]2CC[C@@H]1C3
OUTPUT: 14.1

INPUT: Give its inhibition value. Item: C[C@@H]1O[C@@H](OC[C@H]2O[C@@H](Oc3cc(O)c4c(=O)cc(-c5ccc(O)cc5)oc4c3)[C@H](O)[C@@H](O)[C@@H]2O)[C@H](O)[C@H](O)[C@H]1O
OUTPUT: 23

INPUT: Which measured inhibition value corresponds to COc1ccc(-c2cc(=O)c3c(OC)c(OC)c(OC)cc3o2)cc1OC ?
OUTPUT: 29.6

INPUT: Need inhibition of CO[C@@H]1[C@H](O)C[C@@H](O[C@@H]2C[C@H](Oc3cc4cc5c(c(O)c4c(O)c3C)C(=O)[C@@H](O[C@H]3C[C@@H](O[C@H]4C[C@@H](O[C@H]6C[C@](C)(O)[C@@H](OC(C)=O)[C@H](C)O6)[C@H](O)[C@@H](C)O4)[C@H](O)[C@@H](C)O3)[C@H]([C@H](OC)C(=O)[C@@H](O)[C@@H](C)O)C5)O[C@H](C)[C@@H]2OC(C)=O)O[C@@H]1C , thanks.
OUTPUT: 5.47

INPUT: Need inhibition, item CC1=C2[C@H]3OC(=O)[C@@H](C)[C@@H]3CC[C@@]2(C)C=CC1=O
OUTPUT: 3.63

INPUT: Item under review: COc1cc2c(c3oc4cccc(O)c4c(=O)c13)[C@@H]1C=CO[C@@H]1O2 . Reported inhibition?
OUTPUT: 18.2

INPUT: I would be grateful if you could share the reported inhibition for CC(C)C[C@H]1C(=O)N2CCC[C@H]2[C@]2(O)O[C@](NC(=O)[C@@H]3C=C4c5cccc6[nH]c(Br)c(c56)C[C@H]4N(C)C3)(C(C)C)C(=O)N12 .
OUTPUT: -0.33

INPUT: Could you tell me which inhibition is on file for O=C1Nc2ccccc2/C1=C1/Nc2ccccc2C1=O ?
OUTPUT: 7.97

INPUT: Can you look up the measured inhibition of CC1=CC(=O)C(C(C)C)=CC1=O for me?
OUTPUT: 7.9

INPUT: Quick one: inhibition for C[N+]1([O-])[C@@H]2CC[C@H]1C[C@H](OC(=O)C(CO)c1ccccc1)C2 (stereo partly specified) ?
OUTPUT: 25.9

INPUT: Fill in: inhibition of Cc1c([C@H](C)[C@@H]2NC[C@@H](C)C[C@H]2O)ccc2c1C[C@H]1[C@H]2CC=C2C[C@@H](O)CC[C@@]21C is ___
OUTPUT: 24.5

INPUT: Give its inhibition value. Item: COc1cc2c(c(OC)c1OC)-c1c(cc3c(c1OC)OCO3)C[C@H](C)[C@H](C)C2
OUTPUT: -4.27

INPUT: Please look up its inhibition: c1coc(CNc2ncnc3[nH]cnc23)c1
OUTPUT: -5.12

INPUT: # query: inhibition of entry CN1C(=O)C[C@H](C(=O)O)[C@H]1c1cccnc1 (relative stereo)
OUTPUT: -2.93

INPUT: Using the record for Oc1cc(O)cc(/C=C/c2ccc(O)c(O)c2)c1 , report its inhibition.
OUTPUT: 17

INPUT: Consider the compound CC(C)=CCC/C(C)=C/CC/C(C)=C/CC/C(C)=C/C(=O)O and give its measured inhibition.
OUTPUT: -5.57

====

# TESTED TARGET: Cholinesterase (Equus caballus)
# APPLIED CONDITIONS: at 2 mg/mL
Quick reference: inhibition of the listed items.
I only need the number, in %, no unit after it.

Examples from the recorded data:
{"columns": ["SMILES DATA", "inhibition, %"],
 "data": [
  ["Cc1c2ccncc2c(C)c2c1[nH]c1ccccc12", 44.1],
  ["O=C(/C=C/c1ccc(O)c(O)c1)c1ccc(O)cc1O", -0.63],
  ["CCCCCCC(=O)CCCCCC/C=C/C[C@@H](O)[C@H](O)[C@@](N)(CO)C(=O)O", 1.5]
]}

INPUT: Return inhibition measured with Cholinesterase (Equus caballus) given this compound: C=CCc1ccc(O)c(-c2cc(CC=C)ccc2O)c1
OUTPUT: 0.25

INPUT: // lookup inhibition | system=Cholinesterase (Equus caballus) | key= COc1cccc2c1C(=O)c1c(O)c3c(c(O)c1C2=O)C[C@@](O)(C(=O)CO)C[C@@H]3O[C@H]1C[C@H](N)[C@H](O)[C@H](C)O1
OUTPUT: 1.2
